Cited source: paper PMC9542723

Test: Steady-state serum concentrations of PB (PB1 + PB2) by UHPLC-MS/MS in critically ill patients
Format: in vivo, human
Details: human, iv, AKI group (n = 26), 50% of the way through a 12 h dosing interval, serum, sum PB1+PB2, UHPLC-MS/MS, median (IQR), read-out: C 1/2, middle serum concentration through a dosing interval
Positions of bridges follow the written chain, without caps; N, C: chain ends. Non-standard residues stand in square brackets, D forms with d. Residues, ends and D or L forms follow the SMILES beside them. *: point of attachment. X1 = CC[C@H](C)CCCCC(=O)*; Dab = NCC[C@H](N)C(=O)O

| Molecule | level at 6 h [ng/mL] |
| --- | --- |
| CC[C@H](C)CCCCC(=O)N[C@@H](CCN)C(=O)N[C@H](C(=O)N[C@@H](CCN)C(=O)N[C@H]1CCNC(=O)[C@H]([C@@H](C)O)NC(=O)[C@H](CCN)NC(=O)[C@H](CCN)NC(=O)[C@H](CC(C)C)NC(=O)[C@@H](Cc2ccccc2)NC(=O)[C@H](CCN)NC1=O)[C@@H](C)O [PB, polymyxin B] (X1-[Dab]T[Dab][Dab][Dab][dF]L[Dab][Dab]T; lactam 4-C) | 3940 |

###

Assay: Steady-state serum concentrations of PB (PB1 + PB2) by UHPLC-MS/MS in critically ill patients
Assay type: in vivo, human
Conditions: human, iv, AKI group (n = 26), within 30 min after end of 1 h i.v. infusion, serum, sum PB1+PB2, UHPLC-MS/MS, median (IQR), read-out: C max, peak serum concentration of PB
Positions of bridges follow the written chain, without caps; N, C: chain ends. Non-standard residues stand in square brackets, D forms with d. Residues, ends and D or L forms follow the SMILES beside them. *: point of attachment. X1 = CC[C@H](C)CCCCC(=O)*; Dab = NCC[C@H](N)C(=O)O
Reported Property: Cmax (ng/mL)

| Compound | Meas Value |
| --- | --- |
| CC[C@H](C)CCCCC(=O)N[C@@H](CCN)C(=O)N[C@H](C(=O)N[C@@H](CCN)C(=O)N[C@H]1CCNC(=O)[C@H]([C@@H](C)O)NC(=O)[C@H](CCN)NC(=O)[C@H](CCN)NC(=O)[C@H](CC(C)C)NC(=O)[C@@H](Cc2ccccc2)NC(=O)[C@H](CCN)NC1=O)[C@@H](C)O [PB, polymyxin B] (X1-[Dab]T[Dab][Dab][Dab][dF]L[Dab][Dab]T; lactam 4-C) | 6800 |
